- TARGET SYSTEM: human FPR1 (Homo sapiens (Human), UniProt P21462)
- Sequence (P21462 whole entry): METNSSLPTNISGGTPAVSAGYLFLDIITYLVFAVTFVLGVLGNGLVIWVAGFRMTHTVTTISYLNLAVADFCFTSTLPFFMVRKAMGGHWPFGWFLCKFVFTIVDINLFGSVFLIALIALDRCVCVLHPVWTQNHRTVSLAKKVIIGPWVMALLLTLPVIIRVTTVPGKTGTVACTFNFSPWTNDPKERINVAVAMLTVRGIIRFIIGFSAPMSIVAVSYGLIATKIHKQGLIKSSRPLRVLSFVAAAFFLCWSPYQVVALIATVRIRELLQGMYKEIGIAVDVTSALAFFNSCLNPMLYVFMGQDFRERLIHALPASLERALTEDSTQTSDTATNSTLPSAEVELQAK
- METHOD: FPR1 cyclic adenosine monophosphate (cAMP) assay
- DETAILS: CHO cells overexpressing human FPR1; forskolin 10 μM, IBMX 200 μM; inhibition of cAMP production, HTRF; read-out: hFPR1 cAMP EC50
PROPERTY: EC50 (µM)

Some solved entries appear below for comparison.
CP(C)(=O)c1ccccc1-c1ccc(N2CC[C@@H](NC(=O)Nc3ccc(Cl)cn3)C2=O)c(F)c1F; 3.4
CP(C)(=O)c1ccccc1-c1ccc(N2CC[C@@H](NC(=O)Nc3ccc(OC(F)(F)F)cc3F)C2=O)c(F)c1F; 5
COc1ccc(NC(=O)N[C@@H]2CCN(c3ccc(-c4ccccc4P(C)(C)=O)c(F)c3F)C2=O)c(F)c1; 1.28
CP(C)(=O)c1ccccc1-c1ccc(N2CC[C@@H](NC(=O)Nc3ccc(C(F)(F)F)cc3F)C2=O)c(C(F)(F)F)c1F; 0.22
COc1ccc(NC(=O)N[C@@H]2CCN(c3ccc(-c4ccccc4S(C)(=O)=O)c(F)c3F)C2=O)cc1; 0.9
CC(=O)NC(C)c1cccc(-c2ccc(N3CC[C@@H](NC(=O)Nc4ccc(Cl)cc4F)C3=O)c(F)c2F)c1 (stereo partly shown); 0.45
CC1C[C@@H](NC(=O)Nc2ccc(C(F)(F)F)cc2F)C(=O)N1c1ccc(-c2ccccc2P(C)(C)=O)c(F)c1F (stereo partly shown) [Example 115]; 0.055
CS(=O)(=O)Nc1ccccc1-c1ccc(N2CC[C@@H](NC(=O)Nc3cnc(C(F)(F)F)cn3)C2=O)c(F)c1F; 2.1

I: CP(C)(=O)c1ccccc1-c1ccc(N2CC[C@@H](NC(=O)Nc3ccc(C(F)(F)F)cc3F)C2=O)c(F)c1C(F)(F)F
II: CCP(=O)(CC)c1ncccc1-c1ccc(N2CC[C@@H](NC(=O)Nc3ccc(C(F)(F)F)cc3F)C2=O)c(F)c1F
From the items above, decide which of I and II has the lower EC50 reading. Indicate your choice by writing its label.
I
(I: 0.012 µM, II: 0.092 µM)

1: CS(=O)(=O)Nc1ccccc1-c1ccc(N2CC[C@@H](NC(=O)Nc3ccc(C(F)(F)F)cc3)C2=O)cc1
2: CS(=O)(=O)c1ccccc1-c1cc(F)c(N2CC[C@@H](NC(=O)Nc3ccc(Cl)cc3F)C2=O)c(F)c1
Of 1 and 2 , which one carries the higher reported EC50? Indicate your choice by writing its label.
2

A: CS(=O)(=O)c1ccccc1-c1ccc(N2CC[C@@H](NC(=O)Nc3ccc(Cl)cc3)C2=O)c(F)c1F
B: O=C(Nc1ccc(Cl)cc1F)N[C@@H]1CCN(c2ccc(-c3ccccc3N3CCOC3=O)c(F)c2F)C1=O
C: CC(C)c1cc(-c2ccccc2CO)ccc1N1CC[C@@H](NC(=O)Nc2ccc(Cl)cc2F)C1=O
D: CP(C)(=O)c1ccccc1-c1ccc(N2CC[C@@H](NC(=O)Nc3cccc(Cl)c3)C2=O)c(F)c1F
Reorder the items by EC50, least to greatest. Use the labels to give the ranking in the order requested.
C, A, B, D

###

- TARGET SYSTEM: human FPR2 (Homo sapiens (Human))
- Sequence (P25090 whole entry): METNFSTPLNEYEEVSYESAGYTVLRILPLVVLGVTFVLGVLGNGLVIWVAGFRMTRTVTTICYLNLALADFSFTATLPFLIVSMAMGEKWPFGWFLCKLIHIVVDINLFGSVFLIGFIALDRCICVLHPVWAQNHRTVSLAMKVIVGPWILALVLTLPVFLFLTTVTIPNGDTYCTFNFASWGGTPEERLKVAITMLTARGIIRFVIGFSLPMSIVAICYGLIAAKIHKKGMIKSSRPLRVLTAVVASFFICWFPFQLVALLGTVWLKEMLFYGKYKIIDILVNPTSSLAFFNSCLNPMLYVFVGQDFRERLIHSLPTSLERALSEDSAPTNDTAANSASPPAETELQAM
- METHOD: FPR2 cyclic adenosine monophosphate (cAMP) assay
- DETAILS: CHO cells overexpressing human FPR2; forskolin 5 μM, IBMX 200 μM; inhibition of cAMP production, HTRF; read-out: hFPR2 cAMP2 EC50
- Procedure: FPR2 and FPR1 Cyclic Adenosine Monophosphate (cAMP) Assays. […] The level of intracellular cAMP was determined using the HTRF HiRange cAMP assay reagent kit (Cisbio) according to manufacturer's instruction. […] After a 1-h room temperature incubation, time-resolved fluorescence intensity was measured using the Envision (Perkin-Elmer) at 400 nm excitation and dual emission at 590 nm and 665 nm. […]
PROPERTY: EC50 (nM)

CS(=O)(=O)Nc1ncccc1-c1ccc(N2CC[C@@H](NC(=O)Nc3ccc(Cl)cc3F)C2=O)c(C2CC2)c1; 3.7
CC(N)c1cccc(-c2ccc(N3CC[C@@H](NC(=O)Nc4ccc(Cl)cc4)C3=O)c(F)c2F)c1 (some centres unmarked) [Example 12]; 2.5
CC(N)c1cccc(-c2ccc(N3CC[C@@H](NC(=O)Nc4ccc(Cl)cc4F)C3=O)c(F)c2F)c1 (some centres unmarked); 14
CP(C)(=O)c1ccccc1-c1ccc(N2CC[C@@H](NC(=O)Nc3ccc(Cl)cc3F)C2=O)c(F)c1OC(F)(F)F; 1.6

a: CP(C)(=O)c1ccccc1-c1ccc(N2CC[C@@H](NC(=O)Nc3ccc(Cl)cc3F)C2=O)c(Cl)c1F
b: CP(C)(=O)c1ccccc1-c1ccc(N2CC[C@@H](NC(=O)Nc3ccc(C(F)(F)F)cc3F)C2=O)c(C(F)(F)F)c1F
c: CC(C)c1cc(-c2ccccc2P(C)(C)=O)ccc1N1CC[C@@H](NC(=O)Nc2ccc(C(F)(F)F)cc2F)C1=O
d: CP(C)(=O)c1ccccc1-c1ccc(N2C(=O)[C@@H](NC(=O)Nc3ccc(Cl)cc3F)C[C@H]2CO)c(F)c1F
Reorder the items by EC50, least to greatest. Use the labels to give the ranking in the order requested.
a, c, b, d
(a: 0.79 nM, c: 3.7 nM, b: 8.3 nM, d: 30 nM)

I: CC1C[C@@H](NC(=O)Nc2ccc(C(F)(F)F)cc2F)C(=O)N1c1ccc(-c2cccnc2P(C)(C)=O)c(F)c1F (some centres unmarked) [Example 120]
II: CP(C)(=O)c1ccccc1-c1ccc(N2CC(CO)[C@@H](NC(=O)Nc3ccc(Cl)cc3F)C2=O)c(F)c1F (some centres unmarked) [Example 127]
From the items above, decide which of I and II has the lower EC50 reading. Indicate your choice by writing its label.
I

a: CP(C)(=O)c1ncccc1-c1ccc(N2CC[C@@H](NC(=O)Nc3ccc(Cl)cc3F)C2=O)c(F)c1F
b: CS(=O)(=O)Nc1ccccc1-c1ccc(N2CC[C@@H](NC(=O)Nc3ncc(Cl)cc3F)C2=O)c(F)c1F
From the items above, decide which of a and b has the lower EC50 reading. Indicate your choice by writing its label.
a
(a: 2.2 nM, b: 6.5 nM)

P: CP(C)(=O)c1ccccc1-c1ccc(N2CC(CO)[C@@H](NC(=O)Nc3ccc(Cl)cc3F)C2=O)c(F)c1F (some centres unmarked) [Example 126]
Q: CP(C)(=O)c1ccccc1-c1ccc(N2C(=O)[C@H](NC(=O)Nc3ccc(C(F)(F)F)cc3F)C[C@H]2CN2CCOCC2)c(F)c1F
Of P and Q , which one carries the higher reported EC50? Indicate your choice by writing its label.
P
(P: 12 nM, Q: 1.2 nM)
